# assay.name: Solubility determination in selected excipients (HPLC)
# Type: physicochemical
# run.parameters: 0.01 N HCl, 25 °C, pH 2, simulated gastric fluid, thermodynamic from solid, 0.01 N HCl (about pH 2); read-out: aqueous solubility
measured.endpoint: solubility

Input: # return recorded solubility for entry `COc1ccc(NC(=O)Nc2ccc(F)cc2F)cc1-c1c(Br)cnn1C`
Output: ≤ 10 µg/mL

----------
# assay.name: Solubility determination in selected excipients (HPLC)
# Format: physicochemical
# run.parameters: PEG 300, 25 °C, organic solvent or mixture, thermodynamic from solid, at 25° C. in PEG 300; no suspension observed; read-out: Solubility
measured.endpoint: solubility

Input: # return recorded solubility for entry `COc1ccc(NC(=O)Nc2ccc(F)cc2F)cc1-c1c(Br)cnn1C`
Output: > 150 mg/mL

----------
# assay.name: Plasma pharmacokinetics in healthy male and female volunteers following oral administration of a capsule formulated dose
# Format: in vivo
# run.parameters: both sexes, human, single oral dose 160 mg, capsule with Cremephor RH40
measured.endpoint: AUC(0-inf) (ng·h/mL)
Write the answer as a number in ng·h/mL, unit excluded.

Input: # return recorded AUC(0-inf) for entry `COc1ccc(NC(=O)Nc2ccc(F)cc2F)cc1-c1c(Br)cnn1C`
Output: 739

----------
# assay.name: Solubility determination in selected excipients (HPLC)
# Type: physicochemical
# run.parameters: PEG 400, 25 °C, organic solvent or mixture, thermodynamic from solid, at 25° C. in PEG 400; read-out: Solubility
measured.endpoint: solubility (mg/mL)
Write the answer as a number in mg/mL, unit excluded.

Input: # return recorded solubility for entry `COc1ccc(NC(=O)Nc2ccc(F)cc2F)cc1-c1c(Br)cnn1C`
Output: 377

----------
# assay.name: Solubility determination in selected excipients (HPLC)
# Format: physicochemical
# run.parameters: 0.01 N HCl, 25 °C, pH 2, simulated gastric fluid, thermodynamic from solid, at 25° C. in 0.01 N HCl (pH 2); read-out: Solubility
measured.endpoint: solubility

Input: # return recorded solubility for entry `COc1ccc(NC(=O)Nc2ccc(F)cc2F)cc1-c1c(Br)cnn1C`
Output: < 0.01 mg/mL
